biological target: Aurora B (Homo sapiens, UniProt Q96GD4)
Sequence (Q96GD4 whole entry): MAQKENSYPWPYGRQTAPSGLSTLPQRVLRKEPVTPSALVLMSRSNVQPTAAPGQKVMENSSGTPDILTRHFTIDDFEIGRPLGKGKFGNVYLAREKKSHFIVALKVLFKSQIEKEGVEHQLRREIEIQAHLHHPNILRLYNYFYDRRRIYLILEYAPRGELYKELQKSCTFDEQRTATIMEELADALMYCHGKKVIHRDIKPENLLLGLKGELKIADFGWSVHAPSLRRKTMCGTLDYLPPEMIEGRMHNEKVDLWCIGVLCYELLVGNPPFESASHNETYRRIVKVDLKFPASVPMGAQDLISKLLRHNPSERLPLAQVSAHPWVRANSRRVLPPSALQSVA
pIC50: −log10 of the molar value.
value.type: pIC50

smiles: NC(=O)c1ccc(Nc2ncc(F)c(Nc3ccccc3)n2)cc1
test.result: 7.85

---

target: Aurora A (Homo sapiens)
Sequence (O14965 whole entry): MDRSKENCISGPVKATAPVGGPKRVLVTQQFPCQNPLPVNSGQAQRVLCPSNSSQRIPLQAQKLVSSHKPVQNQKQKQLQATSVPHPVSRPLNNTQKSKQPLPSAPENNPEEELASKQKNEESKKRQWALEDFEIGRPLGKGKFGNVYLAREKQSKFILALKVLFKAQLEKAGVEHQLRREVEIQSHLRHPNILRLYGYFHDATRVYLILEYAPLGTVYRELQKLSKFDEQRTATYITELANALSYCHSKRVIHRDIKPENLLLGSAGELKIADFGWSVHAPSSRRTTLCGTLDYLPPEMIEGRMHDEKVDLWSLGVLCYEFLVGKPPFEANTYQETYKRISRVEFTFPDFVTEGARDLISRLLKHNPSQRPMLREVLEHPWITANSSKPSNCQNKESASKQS
pIC50: −log10 of the molar value.
value.type: pIC50

molecule: NC(=O)c1ccc(Nc2ncc(F)c(Nc3ccccc3)n2)cc1 [AJI-100]
experimental.system: Aurora A (Homo sapiens)
test.result: 8.27
